Taken from PubChem BioAssay (NCI).

- Test system: COLO 205 colon
- assay method text: NCI tumour cell line growth inhibition, 48 h
quantity measured: TGI

| molecule | observed measurement |
| --- | --- |
| O=C1OC(c2ccccc2)=N/C1=C\c1ccc(Oc2ccc(Cl)c(Cl)c2)cc1 | > 100 µM |
| Cc1ccc(-c2cc(O)c3nc4ccccc4n3c2)cc1 | > 100 µM |
| Cc1cc(Cl)ccc1OCC(=O)Nc1nc(N)nc(N)n1 | > 100 µM |
| CCOC(=O)C(NC(=O)CC)(Nc1ccc(S(=O)(=O)Nc2onc(C)c2C)cc1)C(F)(F)F (stereo unspecified) | > 100 µM |
| COc1ccc(NC(=O)/C=C(C)/C=C/C=C(C)/C=C/C2=C(C)CCCC2(C)C)cc1 | 10.9 µM |
| [O-][N+]1(CC[N+]2([O-])CCCCC2)CCCCC1 | > 100 µM |
